target: AMPA receptors; assay: Binding test for test drug to AMPA receptors ([3H]AMPA competition); design: species or system Wistar rat; details: labeled ligand of the assay; Kd2; listed among the conditions; read-out: Kd (Kd2)
MEASURE NAME: Kd (nM)

> print(dat)
                                   compound  readout.value
1  Cc1onc(O)c1CC(N)C(=O)O (stereo not shown) [[^3H]AMPA]            990

* * *

biological target: glutamate receptors; assay: Non-selective binding test for test drug to glutamate receptors ([3H]L-glutamate competition); details: labeled ligand of the assay; listed among the conditions of the experiment
MEASURE NAME: Kd

> print(dat)
                                   compound  measure.name  readout.value
1  N[C@@H](CCC(=O)O)C(=O)O [[^3H]L-glutamate, L-glutamate]            Kd         293 nM

Recorded values, source patent US8420336B2.
